test system: HOP-92 NSCLC; assay: NCI-60 one-dose screen, 48 h; conditions: 10 µM unless noted
Compounds without any hit were thinned out: in the full panel of roughly 83,000, 20% have a hit. The source made the active and inactive calls. The calls were made as follows: active = growth percent below 10; inactive = the rest.
Outcomes: yes (1) (active), no (0) (inactive)

>  <query smiles>
COc1ccc2[nH]cc(-c3cc4nc(-c5cn(C)c6ncccc56)cc(N)n4n3)c2c1

>  <category label>
yes (1)

$$$$
>  <query smiles>
COc1ccc(-c2cc(C(=O)N=Nc3c(O)[nH]c4ccc(Cl)cc34)c3ccccc3n2)cc1OC

>  <category label>
no (0)

$$$$
>  <query smiles>
Cc1ccc(C(=O)Nc2cc(-n3ccnc3)cc(C(F)(F)F)c2)cc1-n1cc(-c2cnc3cccnn23)nn1

>  <category label>
no (0)

$$$$
>  <query smiles>
CC(C)(C)c1cc(-c2cc(-c3ccccc3)[nH]c(=O)c2C#N)cc(C(C)(C)C)c1

>  <category label>
yes (1)

$$$$
>  <query smiles>
S=C(Nc1ccc(OCc2nc3ccc(Cl)cc3[nH]2)cc1)NC1CCCCC1

>  <category label>
yes (1)

$$$$
>  <query smiles>
COc1ccc2[nH]c(O)c(N=Nc3nc(-c4ccc(Cl)cc4)cs3)c2c1

>  <category label>
yes (1)

$$$$
>  <query smiles>
N#Cc1c(NC(=O)N2CCOCC2)n(-c2ccc(OC(F)(F)F)cc2)c2cc(F)ccc12

>  <category label>
no (0)

$$$$

* * *

tested on: HOP-62 NSCLC; assay: NCI-60 one-dose screen, 48 h (100 = growth as untreated, 0 = no growth, -100 = all killed); details: 10 µM unless noted
The panel holds about 83,000 compounds, 20% with a hit somewhere; the sample as a whole holds those more often.
Rule: growth under 80% gives N, otherwise Y.

>  <compound>
O=C(CSc1nnc(-c2ccc(-c3nc4ccccc4[nH]3)cc2)o1)Nc1ccc(Cl)cc1

>  <category label>
N

$$$$
>  <compound>
CCOC(=O)/C(F)=C/C1CC1C(c1ccccc1)c1ccccc1 (stereo not given)

>  <category label>
Y

$$$$
>  <compound>
COc1ccc2[nH]c(=O)c(CSc3ccccc3Nc3nccc(-c4ccc5c(c4)OCO5)n3)cc2c1

>  <category label>
Y

$$$$
>  <compound>
COc1ccc(-c2nc3ccccc3n2CC(=O)N=Nc2c(O)[nH]c3ccc(OC)cc23)cc1

>  <category label>
N

$$$$
>  <compound>
O=C(NN1C(=O)/C(=C/C=C/c2ccc([N+](=O)[O-])o2)SC1=S)c1ccncc1

>  <category label>
N

$$$$
>  <compound>
C#CCN(C)CCCOc1ccc(N(CC)C(=O)c2cc(C(C)C)c(O)cc2O)cc1Cl

>  <category label>
N

$$$$
>  <compound>
O=C(Cc1c(-c2ccccc2[N+](=O)[O-])n(-c2ncnc3c2c(-c2ccccc2)c(-c2ccccc2)n3Cc2ccccc2)[nH]c1=O)c1ccc(Cl)c(Cl)c1

>  <category label>
N

$$$$
>  <compound>
Oc1cncc(-c2ccc3ncnc(N4CCc5cc(F)c(Cl)cc54)c3c2)c1

>  <category label>
N

$$$$

* * *

system: A549/ATCC NSCLC; assay: NCI-60 one-dose screen, 48 h (100 = growth as untreated, 0 = no growth, -100 = all killed); conditions: 10 µM unless noted
This is part of a sample that, as a whole, favours compounds with a hit. Of some 83,000 tested, about 20% had one in any assay.
Known growth of a selection of compounds
reported endpoint: growth (%)

>  <query smiles>
Cc1nn(-c2ccccc2)c2ncn(CC(=O)N/N=C/c3ccccc3O)c(=O)c12

>  <data value>
38.9

$$$$
>  <query smiles>
COC(=O)c1cc(C(=O)C(Br)Br)n2c1ccc1c3ccccc3ccc12

>  <data value>
40.8

$$$$
>  <query smiles>
O=c1c(-c2nc(-c3ccccc3)c(-c3ccccc3)[nH]2)coc2ccc(F)cc12

>  <data value>
40

$$$$
>  <query smiles>
O=C(N/N=C/c1c[nH]c2ccccc12)Nc1ccc(F)c(Cl)c1

>  <data value>
39.4

$$$$

* * *

Let's look at some compounds and their measured growth.
tested on: COLO 205 colon; test: NCI-60 one-dose screen, 48 h (100 = growth as untreated, 0 = no growth, -100 = all killed); details: 10 µM unless noted
Compounds without any hit were thinned out: in the full panel of roughly 83,000, 20% have a hit. Activity calls are given as the source filed them. Rule for the calls: active = growth percent below 10; inactive = the rest.

>  <compound>
Cn1cc(-c2cc(N)n3nc(-c4c[nH]c5ccc(F)cc45)cc3n2)c2cc(Br)cnc21

>  <experimental target>
COLO 205 colon

>  <growth>
119% (inactive)

$$$$
>  <compound>
CCCCCCCCc1ccc(C(=O)Nc2ccc(C)cc2C(=O)O)cc1

>  <experimental target>
COLO 205 colon

>  <growth>
119% (inactive)

$$$$
>  <compound>
O=C(c1ccc(O)cc1)C1[C@H](c2ccc(Cl)cc2)[C@@H](c2ccccc2)NC12C(=O)Nc1ccc(Br)cc12 (some centres undefined)

>  <experimental target>
COLO 205 colon

>  <growth>
-86.3% (active)

$$$$
>  <compound>
Cc1cc(C(NC(=O)C2CC3(CC(Nc4cccc5c4C(=O)N(C4CCC(=O)NC4=O)C5=O)C3)C2)c2ccc3c(c2)OC(F)(F)O3)c(O)c2ncccc12 (centres undefined)

>  <experimental target>
COLO 205 colon

>  <growth>
13.2% (inactive)

$$$$

* * *

test system: HCT-15 colon; experiment: NCI-60 one-dose screen, 48 h (100 = growth as untreated, 0 = no growth, -100 = all killed); details: 10 µM unless noted
This is part of a sample that, as a whole, favours compounds with a hit. Of some 83,000 tested, about 20% had one in any assay.
Overview of recorded growth for various compounds
reported endpoint: growth (%)

>  <query smiles>
COc1ccccc1Nc1nnc(-c2c[nH]c3ccccc23)o1

>  <data value>
11.5

$$$$
>  <query smiles>
COc1cccc(/C=C/c2nc3ccccc3c(=O)n2CC(=O)Nc2ccccc2)c1

>  <data value>
67.8

$$$$
>  <query smiles>
COc1ccc(-c2cc(-c3cc(OC)c(OC)c(OC)c3)[nH]c(=O)c2C#N)cc1

>  <data value>
81

$$$$

* * *

test system: MCF7 breast; experiment: NCI-60 one-dose screen, 48 h (100 = growth as untreated, 0 = no growth, -100 = all killed); details: 10 µM unless noted
This is part of a sample that, as a whole, favours compounds with a hit. Of some 83,000 tested, about 20% had one in any assay.
reported endpoint: growth (%)

>  <query smiles>
Cc1ccc(C(C)C)cc1Oc1cccc(-c2c(-c3ccc(C(F)(F)F)cc3)ncn2C2CCNCC2)n1

>  <unit descriptor>
%

>  <data value>
-85.3

$$$$
>  <query smiles>
Cn1cc(-c2cc(N)n3nc(-c4c[nH]c5ccccc45)cc3n2)c2ccccc21

>  <unit descriptor>
%

>  <data value>
-77.3

$$$$
>  <query smiles>
Nc1nn2c(-c3cc4ccccc4oc3=O)ccnc2c1N=Nc1ccccc1

>  <unit descriptor>
%

>  <data value>
52.7

$$$$
>  <query smiles>
Cc1ccc(-c2cc(-c3ccccc3)[nH]c(=O)c2C#N)cc1

>  <unit descriptor>
%

>  <data value>
75.1

$$$$

* * *

Measured growth accompanies every entry in the list below.
system: SR leukemia; assay: NCI-60 one-dose screen, 48 h (100 = growth as untreated, 0 = no growth, -100 = all killed); details: 10 µM unless noted
About 83,000 compounds went through this panel and 20% of them were active in at least one assay; those are over-represented in the sample as a whole.

>  <compound>
N#CC1=C(c2ccco2)Nc2c(c(-c3ccccc3)nn2-c2ccccc2)C12C(=O)Nc1ccc(Cl)cc12 (centres undefined)

>  <growth, %>
-2.37

$$$$
>  <compound>
Cc1cc(C(NC(=O)C2CC3(CC(Nc4cccc5c4C(=O)N(C4CCC(=O)NC4=O)C5=O)C3)C2)c2ccc3c(c2)OC(F)(F)O3)c(O)c2ncccc12 (centres undefined)

>  <growth, %>
10.6

$$$$
>  <compound>
c1n[nH]cc1-c1nc2ccc3[nH]ncc3c2c2c1CC1(CCOCC1)CC2

>  <growth, %>
2.94

$$$$
>  <compound>
COc1ccc2[nH]cc(-c3cc(N)n4nc(-c5c[nH]c6ccccc56)cc4n3)c2c1

>  <growth, %>
11.1

$$$$
>  <compound>
FC(F)(F)c1cc2c(Cl)ncnc2n1CCN1CCCCC1

>  <growth, %>
-50.9

$$$$
>  <compound>
Cc1ccc2nc(SCc3ccccc3F)n(-c3ccccc3)c(=O)c2c1

>  <growth, %>
109

$$$$
>  <compound>
Clc1ccc2c(NCCNC34CC5CC(CC(C5)C3)C4)ccnc2c1

>  <growth, %>
-35.2

$$$$
>  <compound>
Cc1cc(C2(c3cc(C)c(OCC(O)CNc4c(C)n(C)n(-c5ccccc5)c4=O)cc3C(C)C)OC(=O)c3ccccc32)c(C(C)C)cc1OCC(O)CNc1c(C)n(C)n(-c2ccccc2)c1=O (centres undefined)

>  <growth, %>
5.65

$$$$
>  <compound>
CN1CCN(C(=O)Oc2cc3c(c4ccccc24)[C@H](CCl)CN3C(=O)c2cc3cc(OCCCN4CCC4)ccc3[nH]2)[C@@H]2CSSC[C@H]21

>  <growth, %>
5.86

$$$$
>  <compound>
O=c1ccc(Cn2c(C(F)(F)F)cc3c(Cl)ncnc32)c[nH]1

>  <growth, %>
-53.9

$$$$
>  <compound>
CN(CCSSCCN1CCOCC1)C(=O)Oc1cc2c(c3ccccc13)[C@H](CCl)CN2C(=O)c1cc2cc(OCCCN3CCC3)ccc2[nH]1

>  <growth, %>
-26.2

$$$$
>  <compound>
Cn1cc(Nc2ncnc(-c3ccc(N4CCCC4)c(C#N)c3)n2)cn1

>  <growth, %>
28.7

$$$$
>  <compound>
CC[C@]12C=CCN3CC[C@@]4(c5ccc(OC)cc5N(C)[C@H]4[C@@](O)(C(=O)OC)[C@@H]1OC(=O)CCCC[P+](c1ccc(F)cc1)(c1ccc(F)cc1)c1ccc(F)cc1)[C@@H]32

>  <growth, %>
28.8

$$$$
>  <compound>
COc1ccc(C(=O)C[n+]2cccc3c4ccccc4ccc32)cc1

>  <growth, %>
34.4

$$$$
